molecular target: EGFR-L858R/T790M (Homo sapiens (Human), UniProt P00533, L858R/T790M); assay: In vitro EGFR kinase activity assay (Z'-Lyte); format: biochemical; settings: read-out: Inhibitory activity on EGFR kinase (IC50, nM) T790M/L858R;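 note: Cell-free kinase reaction with peptide substrate and ATP, 1.5 h at room temperature, development cleaving unphosphorylated peptide, 10-point dilution 0.051–1000 nM, phosphopeptide as 100% phosphorylation control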
Sequence (P00533 25-1210 T790M/L858R): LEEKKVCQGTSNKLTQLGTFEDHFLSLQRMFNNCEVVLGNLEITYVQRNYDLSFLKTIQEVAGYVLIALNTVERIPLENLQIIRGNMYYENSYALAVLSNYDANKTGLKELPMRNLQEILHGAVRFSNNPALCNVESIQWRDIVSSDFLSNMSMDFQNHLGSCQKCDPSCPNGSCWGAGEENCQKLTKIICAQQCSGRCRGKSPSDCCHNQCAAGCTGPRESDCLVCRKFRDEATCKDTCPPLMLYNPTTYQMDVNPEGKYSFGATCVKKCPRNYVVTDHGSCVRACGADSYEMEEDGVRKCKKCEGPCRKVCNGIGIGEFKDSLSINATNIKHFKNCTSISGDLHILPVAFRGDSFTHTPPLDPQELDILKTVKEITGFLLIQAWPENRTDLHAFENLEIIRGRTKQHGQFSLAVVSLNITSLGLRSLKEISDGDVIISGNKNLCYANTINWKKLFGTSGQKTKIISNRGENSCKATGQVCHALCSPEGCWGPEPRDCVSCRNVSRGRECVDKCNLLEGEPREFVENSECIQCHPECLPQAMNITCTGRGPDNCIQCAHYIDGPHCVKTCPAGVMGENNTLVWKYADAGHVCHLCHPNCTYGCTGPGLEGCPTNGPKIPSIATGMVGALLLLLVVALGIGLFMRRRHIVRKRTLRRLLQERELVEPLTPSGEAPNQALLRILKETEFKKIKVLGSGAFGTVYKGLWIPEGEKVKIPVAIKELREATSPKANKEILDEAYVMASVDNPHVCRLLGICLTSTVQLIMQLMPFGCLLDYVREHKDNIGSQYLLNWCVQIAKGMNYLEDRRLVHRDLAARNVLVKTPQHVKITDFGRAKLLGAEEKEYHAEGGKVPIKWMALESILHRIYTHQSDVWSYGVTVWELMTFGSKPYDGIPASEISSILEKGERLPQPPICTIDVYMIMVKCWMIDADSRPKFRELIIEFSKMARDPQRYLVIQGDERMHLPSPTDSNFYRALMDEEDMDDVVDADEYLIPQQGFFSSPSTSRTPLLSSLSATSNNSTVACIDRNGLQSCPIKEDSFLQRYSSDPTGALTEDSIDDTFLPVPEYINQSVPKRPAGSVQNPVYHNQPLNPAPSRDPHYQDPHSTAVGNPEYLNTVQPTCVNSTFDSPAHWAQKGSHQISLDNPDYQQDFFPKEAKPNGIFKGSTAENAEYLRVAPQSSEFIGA
Give measured IC50 for each item. Keep answers brief.
Answer with the figure and its unit, nothing else.

The compound C=CC(=O)Nc1cccc(-n2c(=O)cnc3cnc(Nc4ccc(N5CCCCC5)cc4)nc32)c1 [Compound 021] , tested on EGFR-L858R/T790M (Homo sapiens (Human), UniProt P00533, L858R/T790M), showed IC50 of 5.49 nM

The compound C=CC(=O)Nc1ccc(-n2c(=O)cnc3cnc(Nc4ccc(Cl)cc4)nc32)cc1 [Compound 016] , tested on EGFR-L858R/T790M (Homo sapiens (Human), UniProt P00533, L858R/T790M), showed IC50 of 1490 nM

The compound COc1ccc(Nc2ncc3ncc(=O)n(-c4cccc(NC(=O)/C=C/CN(C)C)c4)c3n2)cc1 [Compound 010] , tested on EGFR-L858R/T790M (Homo sapiens (Human), UniProt P00533, L858R/T790M), showed IC50 of 2020 nM

The compound C=CC(=O)Nc1cccc(-n2c(=O)cnc3cnc(Nc4ccc(NC(C)=O)cc4)nc32)c1 [Compound 024] , tested on EGFR-L858R/T790M (Homo sapiens (Human), UniProt P00533, L858R/T790M), showed IC50 of 5.12 nM
